Test system: leukemia L-1210
Experiment: Antitumour activity in mice inoculated intraperitoneally with leukemia L-1210 (survival, T/C)
Assay type: in vivo, CDF-1 male mice
Settings: Mus musculus, L1210, ip; 100 mg/kg i.p., directly after injection of L-1210, after 2 days and after 6 days
Experimental endpoint: response vs control in vivo at 100 mg/kg (%)
Answers are plain numbers, in %.

Molecule	response vs control in vivo at 100 mg/kg, %
CCCCCCCCCCCCCCCCCC(=O)Nc1ccn([C@@H]2O[C@H](CO)[C@@H](OP(=O)(O)O)[C@@H]2OP(=O)(O)O)c(=O)n1 [N^4-stearoyl-Ara-C-2',3'-(PNa)2]	184
CCCCCCCCCCCCCCCCCCCC(=O)Nc1ccn([C@@H]2O[C@H](CO)[C@@H](O)[C@@H]2O)c(=O)n1 [N^4 -Arachidoyl-Ara-C]	313
CCCCCCCCCC(=O)Nc1ccn([C@@H]2O[C@H](CO)[C@@H](O)[C@@H]2O)c(=O)n1 [N^4 -Capryl-Ara-C]	159

Please examine the following record next.
Challenge: Report response vs control in vivo at 100 mg/kg for CCCCCCCCCCCCCCCCCC(=O)Nc1ccn([C@@H]2O[C@H](COP(=O)(O)O)[C@@H](OP(=O)(O)O)[C@@H]2O)c(=O)n1 [N^4-stearoyl-Ara-C-3',5'-(PNa)2] please.
Response given: 215

Provenance of the data: patent US4086417A
